Plant response rating, Arrowleaf Sida reference
System: arrowleaf sida
Experiment: Test F preemergence
Format: in vivo, Sida rhombifolia
Conditions: Preemergence; 125 g ai/ha; scale 0 to 100
// print number alone

The following molecules have reported results that may help.
| item_smiles | Plant response rating, Arrowleaf Sida |
| --- | --- |
| CCNC(=O)c1cc(CC)n(Cc2ccnc(C(F)(F)F)c2)n1 | 70 |
| CCNC(=O)c1cc(CCCl)n(Cc2ccnc(C(F)(F)F)c2)n1 | 35 |
| CCc1cc(C(=O)NC2CC2)nn1Cc1ccnc(OCC(F)(F)F)c1 | 35 |

Now for a further molecule.
What value of measured Plant response rating, Arrowleaf Sida is listed for `CCOc1cc(C(=O)NC(C)C)nn1Cc1ccnc(C(F)(F)F)c1` ?
20
